experiment: Drug repurposing screens with cells derived from glioblastoma tumor samples (AID 1345199); conditions: GBM patient neurospheres viability, ATP luminescence, 48 h; at 45.9 µM (top of the series); tumour line D; note: % is set by controls: 0 for no effect and ±100 for the full control effect; nearly all actives have a fitted effect of over 40% in size
Inconclusive results are not listed.
reportedProperty: activity, negative = cell killing (%)
Please state the figure in %; there is no need to write the unit.

Qu. Please give the measured activity, negative = cell killing for this molecule: CN1c2cc(O)c(N=NC(N)=O)cc2CC1S(=O)(=O)O (stereo not given)
Ans. 7.92

Qu. Entry under review: COc1cc(C(=O)NS(=O)(=O)c2ccccc2C)ccc1Cc1cn(C)c2ccc(NC(=O)OC3CCCC3)cc12 . Reported activity, negative = cell killing?
Ans. -15.9

Qu. Quick check: activity, negative = cell killing of CC(=O)SC[C@@H](C)C(=O)N1CCC[C@H]1C(=O)N[C@@H](Cc1ccccc1)C(=O)O ?
Ans. 2.25

Qu. Param item = O=C(O)CO.[NH2-].[NH2-].[Pt+2] ; retrieve measured activity, negative = cell killing.
Ans. 26.7

Qu. What does the record list as activity, negative = cell killing for O=c1[nH]c(=O)n(C2CCCO2)cc1F (stereo not given) ?
Ans. -14.2

---

Assay: qHTS of pediatric cancer cell lines to identify multiple opportunities for drug repurposing: Primary screen for NB1643 cells (AID 1347099); note: nearly all actives have a fitted effect of over 50% in size
Settings: NB1643 neuroblastoma viability, CellTiter-Glo luminescence, 48 h; series mostly up to 46 µM
Experimental: Drug repurposing or repositioning has been offered as a strategy for drug development in oncology programs. This approach has special potential for childhood cancers and other rare or orphan diseases, where the expected return on new drug development has been a disincentive to pharmaceuticals. […] We employed a titration-based paradigm (quantitative high-throughput screening or qHTS), where all compounds were tested at multiple concentrations for their effect on cell viability. […]
Inconclusive results are not listed. Calls of active or inactive are those of the source. Calls follow the shape of the dose curve; as a rule, active = well fitted cell-killing curve with a large enough effect; inconclusive = small, poorly fitted or top-dose-only effect; inactive = no such curve, though single readings can be large or run the other way.
# valid calls are true (1) = active, false (0) = inactive; nothing else

Qu. What outcome does the record of this test show for CN(C)CC=CC(=O)Nc1cc2c(Nc3ccc(F)c(Cl)c3)ncnc2cc1O[C@H]1CCOC1 ?
Ans. true (1)

Qu. Given O=c1[nH]c(=O)n(C2CCCO2)cc1F (stereo not given) , state the outcome it received in this test.
Ans. false (0)

Qu. Which result was noted for this compound in the test: CC(C)(C)OC(=O)Nc1ccc(-c2cc(C(=O)NCCCCCCC(=O)NO)no2)cc1
Ans. true (1)

Qu. GET /call?item= Fc1cc(-c2cccc3ncc(-c4cnn(C5CCNCC5)c4)nc23)cc(F)c1CN1CCOCC1 returns the recorded outcome of this test.
Ans. true (1)

Qu. Please state the recorded outcome for this compound: C=CC(=O)N1CCC[C@@H](n2nc(-c3ccc(Oc4ccccc4)cc3)c3c(N)ncnc32)C1
Ans. true (1)

---

Give measured max response for each item. Keep answers brief.
assay: qHTS Assay for Identifying Gametocytocidal Compounds (AID 743244);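 note: % is set by controls: 0 for no effect and ±100 for the full control effect; actives lower the fluorescent signal which means gametocytes are killed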; settings: P. falciparum 3D7 stage III-V gametocytes, alamarBlue, 72 h; stronger effect = lower value
Records with an inconclusive call do not appear.
Respond numerically; units are % and should not be typed.

Qu. Consider the compound C[C@]1(CO)CN(c2cc(C(=O)Nc3ccc4c(c3)-c3c(c(C(N)=O)nn3-c3ccc(F)cc3)CC4)c(Cl)cn2)C[C@@]1(C)CO and give its measured max response.
Ans. -20.6

Qu. // max response lookup, key: Cn1c2cc(S(C)=O)sc2c2cnn(Cc3cccc(N)c3)c(=O)c21 (stereo not given)
Ans. 8.65

Qu. Need max response, item CN[C@H]1CCc2cc(OC)c(OC)c(OC)c2-c2ccc(OC)c(=O)cc21
Ans. -7.45

Qu. So what does the record say about max response for O=C(O)c1ccc2c(c1)nc(Nc1cccc(Cl)c1)c1ccncc12 ?
Ans. 35.3

Qu. Look up max response: CC[C@H](CO)Nc1nc(NCc2ccccc2)c2ncn(C(C)C)c2n1
Ans. -4.23

Qu. Form field: reported max response of O=c1c2ccccc2nc2n1CCc1c-2[nH]c2ccccc12
Ans. 16.8

Qu. Given N#Cc1c(O)c2c(-c3ccc(-c4ccccc4O)cc3)csc2[nH]c1=O , state its recorded max response.
Ans. 42.7

Qu. Suppose we examine the compound COc1cc2c(Nc3ccc(NC(=O)c4ccccc4)cc3)ncnc2cc1OCCCN1CCOCC1 ; what max response value has been reported?
Ans. -17.9

Qu. For the compound Clc1ccc2ncc(-c3cccc(NC4CNC4)n3)n2c1 , what max response is on record?
Ans. -0.805

Qu. Data request, read-out max response, for C1=CCOCc2cc(ccc2OCCN2CCCC2)Nc2nccc(n2)-c2cccc(c2)OCC1
Ans. 17.1
